- assay method text: MDA-MB-436 breast carcinoma cell growth inhibition, synergistic combos for chromothripsis tumors, BGB or cisplatin combos (AID 1671458);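 further: cells exposed for 96 hours; 0% = vehicle DMSO and 100% = killing by high DMSO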
- run conditions: MDA-MB-436 breast carcinoma growth inhibition, drug combinations; measured here: cisplatin combination; at 5 µM; stronger effect = higher value

# compound, inhibition, %
rows = [
    ("O=c1[nH]cc(F)c(=O)[nH]1", 36.2),
    ("O=C1c2c(O)ccc(O)c2C(=O)c2c(NCCNCCO)ccc(NCCNCCO)c21", 95.6),
    ("CC(=O)OCC(CCn1cnc2cnc(N)nc21)COC(C)=O", -24.3),
    ("O=C(O)CCCc1ccccc1", -11.2),
]

====

In this section we review reported percent of negative control (+Dex) values for a set of compounds.
- assay method text: modulators of glucocorticoid suppression of NF-kB, cell-based, luciferase, IL-1B stimulus, dexamethasone (AID 624486);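 on percent of negative control (+Dex): 100% = mean signal of vehicle control wells on the plate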
- run conditions: NF-kB luciferase reporter, IL-1B + dexamethasone, luminescence; actives lie on both sides, concentration not given here
measurement name: percent of negative control (+Dex) (%)

# compound, endpoint value
data = [
    ("COc1cc(N2CCN(C(C)C)CC2)ccc1Nc1nc(Nc2ccc(F)cc2C(N)=O)c2cc[nH]c2n1", 70),
    ("O=C1C(c2c[nH]c3ccccc23)=C(c2c[nH]c3ccccc23)C(=O)N1O", 94),
    ("CS(=O)(=O)CCNCc1nc(-c2ccc3ncnc(Nc4ccc(F)c(Cl)c4)c3c2)cs1", 70.5),
    ("NC(=O)c1cc(-c2ccncc2)cc(-c2ccccc2)c1N", 52),
    ("O=S1CCN(Cc2ccc(-c3ccc4ncnc(Nc5ccc(OCc6ccccc6)c(Cl)c5)c4c3)o2)CC1", 77),
    ("CC(CO)Nc1cc(-c2[nH]c3cccnc3c2-c2ccc(F)cc2)ccn1 (centres undefined)", 85.5),
    ("COc1cc[nH]c1C=C1C(=O)Nc2ccc([N+](=O)[O-])c(N3CCC(O)C3)c21 (centres undefined)", 29.5),
    ("CCCN1CCC(Oc2cc(Nc3nc(Nc4cccc(F)c4C(N)=O)c4cc[nH]c4n3)c(OC)cc2Cl)CC1", 77.5),
    ("Cn1cc(/C=C2\\C(=O)Nc3cccnc32)c2ccccc21", 92.5),
]

====

Reported z-score values for a set of compounds
- assay method text: modulators of glucocorticoid suppression of NF-kB, cell-based, luciferase, IL-1B stimulus, dexamethasone (AID 624486)
- run conditions: NF-kB luciferase reporter, IL-1B + dexamethasone, luminescence; measured here: IL-1B alone, no Dex

# compound, z-score
records = [
    ("COc1ccc(-c2coc3ncnc(N)c23)cc1", -0.765),
    ("CCS(=O)(=O)c1ccc(OC)c(Nc2ncc(-c3cccc(OC)c3)o2)c1", -0.275),
    ("O=C1NC(=NCc2cccs2)OC1=Cc1ccc2ncccc2c1", -4.77),
    ("COc1ccc(C2=C(c3cn(C)c4ccccc34)C(=O)NC2=O)cc1", -0.1),
    ("C[C@@H](Oc1cc(-n2cnc3ccc(OC[C@@H](O)CO)cc32)sc1C(N)=O)c1ccccc1Cl", -0.93),
    ("COc1ccc(-c2nn3ncccc3c2-c2ccnc(Nc3cccc(C(F)(F)F)c3)n2)cc1", 0.64),
    ("Cn1cc(C2=C(c3c4n(c5ccccc35)CCNC4)C(=O)NC2=O)c2ccccc21", -0.32),
    ("O=C1Nc2ccc(-c3cccnc3)cc2/C1=C\\c1cc(Br)c(O)c(Br)c1", -0.125),
    ("COc1ccc(CNC(=O)c2ccc(-c3cc(-c4nnc(C)o4)ccc3C)cc2)cc1", 0.42),
    ("CCN(CC)S(=O)(=O)c1ccc(OC)c(Nc2ncc(-c3ccccc3)o2)c1", 0.485),
    ("COc1cccc(/C=N/Nc2ncnc3c2cnn3-c2cccc(OC)c2)c1", -0.3),
    ("Cc1ccc(Nc2ccnc(Nc3cccc(C(N)=O)c3)n2)cc1O", 1.52),
    ("O=C(Nc1n[nH]c2cc(-c3ccc(F)cc3)ccc12)C1CC1", 1.05),
    ("Fc1ccc(-c2ncn(C3CCNCC3)c2-c2ccnc(Oc3ccc(Cl)cc3)n2)cc1", 0.58),
    ("Cn1cc(C2=C(c3cccc4ccccc34)C(=O)NC2=O)c2ccccc21", -1.1),
    ("COc1cc(/C=N/Nc2ncnc3[nH]ncc23)ccc1O", -0.055),
    ("O=C1NC(O)C(c2c[nH]c3ccccc23)=C1c1c[nH]c2ccccc12 (stereo unspecified)", 0.455),
    ("Cn1cc(C2=C(Nc3ccccc3)C(=O)NC2=O)c2ccccc21", 0.495),
    ("COc1ccc2ncnc(Nc3ccc(OCc4ccccc4)cc3)c2c1", -0.885),
    ("Cn1cc(C2=C(c3cn(CCN)c4ccccc34)C(=O)NC2=O)c2ccccc21", 0.435),
    ("Cn1c(=O)c(Cc2ccccc2F)cc2cnc(NC3CCOCC3)nc21", 0.55),
    ("CS(=O)(=O)Nc1ccc(-c2cc(-c3ccccc3)cc(C(N)=O)c2N)cc1", -0.23),
    ("CCn1cc(-c2ccnc3[nH]ccc23)c(-c2cccc(NC(=O)Nc3ccc(OCc4ccccc4)cc3)c2)n1", 0.135),
    ("Nc1c(C(=O)c2cccc(OCC(O)CO)c2)cnn1-c1ccc(F)cc1 (stereo unspecified)", 1.27),
    ("CC(C)(CO)CNC(=O)c1ccc2[nH]c(O)c(N=Nc3ccc(S(N)(=O)=O)cc3)c2c1", -0.01),
    ("CCN1CCC(CC(=O)Nc2n[nH]c3nc(-c4cccs4)c(Br)cc23)CC1", -0.195),
    ("O=C(Nc1n[nH]c2cc(-c3cc(F)ccc3F)ccc12)C1CC1", -0.38),
    ("CN1CCC(n2cnc(-c3ccc(F)cc3)c2-c2ccnc(NCCO)n2)CC1", 1.04),
    ("Cn1cc(C2=C(c3cn(C)c4ccc(Cl)cc34)C(=O)NC2=O)c2ccccc21", -1.06),
    ("COc1cc2c(cc1Nc1nc(Nc3ccsc3C(N)=O)c3cc[nH]c3n1)N(C(=O)CN(C)C)CCC2", -0.185),
    ("Cc1ccc(C(=O)NC2CC2)cc1-c1ccc2[nH]ncc2c1", 0.41),
    ("O=C1Nc2ccc(I)cc2/C1=C\\c1cc(Br)c(O)c(Br)c1", -0.355),
    ("Cc1ccc2c(-c3ccnc(Nc4ccccc4)n3)c(-c3ccc(F)cc3)nn2n1", -1.78),
    ("Cn1cc(C2=C(c3cn(CCCCO)c4ccccc34)C(=O)NC2=O)c2ccccc21", -1.57),
    ("CS(=O)(=O)CCN(CC#N)Cc1ccc(-c2ccc3ncnc(Nc4ccc(OCc5cccc(F)c5)c(Cl)c4)c3c2)o1", -0.4),
    ("COc1cc2ncnc(Nc3ccc4c(cnn4Cc4ccccc4)c3)c2cc1OC", -2.37),
    ("CCCN1CCC(c2ccc(Nc3nc(Nc4cc(F)ccc4C(N)=O)c4cc[nH]c4n3)c(OC)c2)CC1", -1.46),
    ("N#Cc1ccc(C(=O)c2cnn(-c3ccc(F)cc3)c2N)cc1", 1.97),
    ("FC(F)(F)c1cccc(-c2nn3ncccc3c2-c2ccnc(Nc3ccc4c(c3)OCCO4)n2)c1", 0.13),
    ("Cc1ccc2c(-c3ccnc(Nc4cccc(C(F)(F)F)c4)n3)c(-c3ccccc3)nn2n1", -3.32),
    ("COc1ccc2c(c1)C(c1ccccc1Cl)=Nc1c(n[nH]c1C)N2", -0.45),
]

====

- assay method text: stimulators of nuclear beta-catenin in C2C12, primary screen, imaging, WNT3A-conditioned medium, mouse C2C12, NPC library (AID 1117326)
- run conditions: stimulation, at 2 µM, stronger effect = higher value

# molecule, result unit, nuclear beta-catenin stimulation
measured = [
    ("C[C@@H](O)[C@H]1C(=O)N2C(C(=O)O)=C(S[C@@H]3CN[C@H](CNS(N)(=O)=O)C3)[C@H](C)[C@H]12", "%", 3),
    ("Cc1ccccc1C(=O)N1CC/C(=N\\OS(=O)(=O)O)c2ccc(Cl)cc21", "%", -1.3),
    ("Cc1cccc(Nc2ccncc2S(=O)(=O)NC(=O)NC(C)C)c1", "%", -0.1),
    ("Cc1c(I)c(=O)n(-c2ccccc2)n1C", "%", 0.4),
    ("COCCOC(=O)C1=C(C)NC(C)=C(C(=O)OC(C)C)C1c1cccc([N+](=O)[O-])c1 (centres undefined)", "%", 1.2),
    ("c1ccc2sc(SSc3nc4ccccc4s3)nc2c1", "%", 0.3),
    ("O=C(O)c1cc(O)c2c(c1)[O][Bi][O]2", "%", 1),
    ("CO[C@@H]1[C@@H](OC)[C@H](C)[C@@](O)(CC(=O)O)O[C@H]1[C@H](C)[C@H]1O[C@@]2(CC[C@@](C)([C@H]3CC[C@@](C)([C@@H]4O[C@@H]([C@H]5O[C@](C)(O)[C@H](C)C[C@@H]5C)C[C@@H]4OC4C[C@H](OC)[C@@H](OC)[C@H](C)O4)O3)O2)C[C@H](O)[C@H]1C (some centres undefined)", "%", 10.6),
    ("COc1ccc(Cl)cc1C(=O)NCCc1ccc(S(=O)(=O)NC(=O)NC2CCCCC2)cc1", "%", -0.5),
]
